Data credit: PubChem BioAssay (NCI)

Test system: LOX IMVI melanoma
procedure.summary: NCI tumour cell line growth inhibition, 48 h
Each item that follows carries a reported TGI.
quantity.measured: TGI

molecule=Cc1cc2c(C)n(Cc3ccc(Cl)cc3Cl)nc2c(C(=O)O)c1C reported_value="> 100 µM"
molecule="O=C(CC1C(=O)c2ccccc2C1=C1C(=O)c2ccccc2C1=O)c1ccccc1 (stereo unspecified)" reported_value="> 100 µM"
molecule=N#CCCN(CCN(CCC#N)C(=O)Nc1ccccc1)C(=O)Nc1ccccc1 reported_value="> 100 µM"
molecule=CN1CC(=O)N(C)c2nc[nH]c2C1=O reported_value="> 100 µM"
molecule=N#Cc1nc(COCCOCc2ccc(F)cc2)oc1N reported_value="> 100 µM"
molecule=Clc1nc(Cl)c2ncn(Cc3ccc(Cn4cnc5c(Cl)nc(Cl)nc54)cc3)c2n1 reported_value="14.9 µM"
